Measured solubility kinetic by item
Measurement conditions: buffer; pH 7.4; 200.0 µM
Please give a number only; it is taken to be in µg/mL.

# example entries with known answers
Task: State the recorded solubility kinetic for this entry: `Cc1ccc2nc(-c3ccncc3)[nH]c2c1`
Output: 28.1

Task: Fill blank: measured solubility kinetic of the compound `CCc1ccc2[nH]c(C(=O)Nc3ccc(F)cc3Br)cc2c1` is ____.
Output: 0.9

Task: Look up solubility kinetic for this compound: `Cc1ccc(C(=O)Nc2cccc(NC(=O)CN3CCCCC3)c2)cc1`
Output: 41.4

Task: May I ask what solubility kinetic has been recorded for `Cc1ccc(NC(=O)c2cnccn2)c(Br)c1` ?
Output: 4.2

Task: Fill in: solubility kinetic of `COc1cc(OC)cc(C(=O)NCC(=O)N2CCN(S(=O)(=O)c3ccccc3F)CC2)c1` is ___
Output: 52.1

Task: Fill in: solubility kinetic of CCc1ccccc1NC(=O)COC(=O)C1C2CC3OC(=O)C1C3C2 (stereo not given) is ___
Output: 46.2

Task: I have this compound here, `Clc1cccc(Cl)c1-c1noc(CN2CCOCC2)n1` , and I need its recorded solubility kinetic.
Output: 31.8

Task: Look up solubility kinetic for this compound: `COC(=O)c1c(O)cc(=O)n2c1CCCCC2`
Output: 33.3

Here's the next entry for you.
Task: Quick one: solubility kinetic of `COc1ccc(S(=O)(=O)NCCc2ccccc2)cc1OC` ?
Output: 39.9

====

Measurement conditions: buffer; pH 7.4; 200.0 µM
Reported metric: solubility kinetic (µg/mL)
Unit µg/mL implied. Number only.

Task: Find the recorded solubility kinetic belonging to CC[N+](C)(CC)CCC(c1ccccc1)C1CCCCC1 (stereo unspecified) and report it.
Output: 29.5

---
Task: Requested field: solubility kinetic. Item: `COc1ccc(S(=O)(=O)N2CCN(c3ccccn3)CC2)cc1[N+](=O)[O-]`
Output: 5.8

Task: Field request: solubility kinetic | item: `Cc1ccc2cccc(OCc3ccccc3)c2n1`
Output: 20.8

====

Measurement conditions: buffer; pH 7.4; 200.0 µM
Measured solubility kinetic by item

Reference set, count: 5
Task: Which measured solubility kinetic value corresponds to `O=C(O)c1c(Cl)nc2ccccn12` ?
Output: > 29.5 µg/mL

Task: Given the entry `CN1CCN(c2nc(NCc3ccco3)nc(N)c2[N+](=O)[O-])CC1` , report its measured solubility kinetic.
Output: > 50 µg/mL

Task: Look up solubility kinetic: Cc1nc2ccccc2c2c1CC(C)S2 (stereo not given)
Output: 24.5 µg/mL

Task: Entry `O=C1C[C@H](NC(=O)OCc2ccccc2)CO1` : reported solubility kinetic = ?
Output: > 35.3 µg/mL

Task: Please look up its solubility kinetic: O=C(Nc1nccs1)C(c1ccccc1)N1CCCC1 (stereo not given)
Output: > 43.1 µg/mL

---
Task: Endpoint output: solubility kinetic of `Cc1ccccc1-n1c(=O)n(CCc2ccccc2)c(=O)c2[nH]cnc21` . Value?
Output: 10.8 µg/mL

Task: For the compound CCC(C)c1ccccc1NC(=S)NC(=O)c1ccco1 (stereo not given) , what solubility kinetic is on record?
Output: 6 µg/mL

Task: GET /values?readout=solubility kinetic&item= `O=C(O)c1cn(CCOc2ccccc2Cl)c2ccccc12`
Output: > 47.4 µg/mL

Task: // returns reported solubility kinetic for input CC1(C)C2CCC1(C)C(OCCNCCOC(=O)Nc1ccccc1)C2 (stereo not given)
Output: 10.2 µg/mL

Task: Given the entry `CCCn1c(=N)c(C#N)cc2c(=O)n3cccc(C)c3nc21` , report its measured solubility kinetic.
Output: 2.3 µg/mL

Task: Which solubility kinetic value is on record for `C=CCOc1ccc(/C=C2\SC(N3CCCCC3)=NC2=O)cc1` ?
Output: < 0.4 µg/mL

Task: Item `CC(=O)c1cccc(OCCCOc2cccc3cccnc23)c1` has what recorded solubility kinetic?
Output: 37.2 µg/mL

====

Measurement conditions: buffer; pH 7.4; 200.0 µM
Reported metric: solubility kinetic

Take a look at these entries with their results.
Task: May I ask what solubility kinetic has been recorded for `N#Cc1c(-c2ccc(Cl)cc2)ccnc1N1CCOCC1` ?
Output: 3 µg/mL

Task: # solubility kinetic lookup, item `CCOC(=O)N1CCc2c(sc(NC(=O)CN(CC)CC)c2C#N)C1`
Output: > 54.7 µg/mL

Task: Given the molecule `CCCCn1c(-c2cccs2)nc2oc3ccccc3c(=O)c2c1=O` , what is its reported solubility kinetic?
Output: 1.2 µg/mL

Task: Which solubility kinetic is listed for `CC(C)N(C(=O)Cn1cnc2cc([N+](=O)[O-])ccc2c1=O)C(C)C` ?
Output: > 49.9 µg/mL

Task: Look up solubility kinetic: `Cc1c(CC(=O)Nc2ccc(Cl)cc2)sc2ccc(Cl)cc12`
Output: < 0.8 µg/mL

Next:
Task: Consider the molecule shown here: COCCCNc1nc2nonc2nc1N1CCN2CCCC2C1 (stereo unspecified) What is its recorded solubility kinetic?
Output: > 50 µg/mL

====

solubility kinetic listing for selected compounds.
Measurement conditions: buffer; pH 7.4; 200.0 µM
Hi! Could you send only the number? It should be in µg/mL, unit omitted.

Task: # lookup: solubility kinetic of `CN1CCN(CC(=O)c2ccccc2F)CC1.O=C(O)C(=O)O`
Output: 42.9

Task: Consider the compound shown here: `Nc1ccc(Nc2nc3ccccc3[nH]2)cc1` What is its recorded solubility kinetic?
Output: 25.8

Task: For `O=C(NCCc1nc2ccccc2[nH]1)c1ccc([N+](=O)[O-])cc1` , what is its reported solubility kinetic?
Output: 8.7

Task: // returns reported solubility kinetic for input `Cc1ccc(-c2nc(=O)[nH]c3ccccc23)cc1`
Output: 25.8

We now examine a further compound.
Task: Look up solubility kinetic for this compound: `O=C(CNCc1ccc(Cl)cc1)N1CCc2ccccc2C1`
Output: 36.8

====

Measurement conditions: buffer; pH 7.4; 200.0 µM
Reported metric: log10(solubility kinetic) (log10 of the value in µg/mL)
Give log10 of solubility kinetic, with solubility kinetic taken in µg/mL.

Solved cases (5 shown):
Task: Given the entry `S=c1nc[nH]c2nc[nH]c12` , report its measured log10(solubility kinetic).
Output: 1.35

Task: What log10(solubility kinetic) value was documented for this compound, `N=C1C(c2nc3ccccc3[nH]2)=C(O)CN1C1CCCCC1` ?
Output: -0.40

Task: So what does the record say about log10(solubility kinetic) for CC(OC(=O)CSc1ccc(F)cc1)C(=O)NC1(C#N)CCCCC1 (configuration not stated) ?
Output: 1.63

Task: For the compound `CCCc1cc(=O)[nH]c(SCC(=O)Nc2ccc(N3CCCCC3)cc2)n1` , what log10(solubility kinetic) is on record?
Output: 1.22

Task: What value of log10(solubility kinetic) has been reported for the following compound? `COc1ccc(OC)c(CNc2ccc3c(c2)nc(C)n3C)c1`
Output: 1.57

---
Task: Suppose we examine the compound `O=C(COC(=O)COc1ccccc1)Nc1ccc(Cl)cn1` ; what log10(solubility kinetic) value has been reported?
Output: 1.12

Task: Would you mind telling me what log10(solubility kinetic) value was observed for `Cc1cc(=O)n(Cc2ccccc2)c(O)c1C#N` ?
Output: 1.51

Task: What value of log10(solubility kinetic) has been recorded for this entry: `O=C(Nc1ccc(F)cc1)c1ccc2ncsc2c1`
Output: 1.01

====

Measurement conditions: buffer; pH 7.4; 200.0 µM
Could you label it fulfilled if measured solubility kinetic is 40 µg/mL or higher, and not fulfilled otherwise?

Solved entries (count: 3):
Task: Kindly determine if solubility kinetic recorded for `COc1ccc(NC(=O)CN(c2c(C)cccc2C)S(C)(=O)=O)cc1` is above or exactly 40 µg/mL.
Output: fulfilled

Task: Determine whether this molecule has solubility kinetic no lower than 40 µg/mL: CC(C)C(C)NC(=O)COc1ncnc2sccc12 (configuration not stated)
Output: fulfilled

Task: Decide: is the reported value of solubility kinetic for `CCc1ccc(CN(C)C(=O)c2cc(=O)c3ccccc3o2)cc1` equal to or greater than 40 µg/mL?
Output: not fulfilled

Please turn your attention to the following entry.
Task: Check this molecule for solubility kinetic at or above 40 µg/mL: `CCc1ccccc1OCCCN1CCCC1.O=C(O)C(=O)O`
Output: fulfilled

====

Measurement conditions: buffer; pH 7.4; 200.0 µM
Each record here notes measured solubility kinetic.
Write the value in µg/mL as a bare number.

Task: # lookup: solubility kinetic of `O=S(=O)(c1ccc(F)c(F)c1)N1CCN(c2ccccn2)CC1`
Output: 1.5

Task: Return reported solubility kinetic; argument: `COC(=O)c1ccccc1NC(=O)N1CCN(c2ccc(F)cc2)CC1`
Output: 4.4

---
Task: Find the recorded solubility kinetic belonging to `Cc1ccc(N2CCN(C(=O)c3cccs3)CC2)cc1C` and report it.
Output: 43.8

Task: solubility kinetic for `COC(=O)Cn1cnc2scc(-c3ccc(C)c(C)c3)c2c1=O` ?
Output: 33.7
